tested on: P. aeruginosa MP-3; test: Broth dilution MIC determination (CLSI), P. aeruginosa MP-3; type: cell-based; conditions: Pseudomonas aeruginosa, MP3; strain MP-3, broth dilution
measure: MIC

Some solved cases for reference:
CO[C@]1(C)C[C@@H](C)CN(C)[C@H](C2CCNCC2)COC(=O)C(C)(C)C(=O)[C@H](C)[C@H]1O[C@@H]1O[C@H](C)C[C@H](N(C)C)[C@H]1O [Compound 80] = > 32 µg/mL
CO[C@]1(C)C[C@@H](C)CN(C)[C@H](C2CC3CCC(C2)N3C(C)C)COC(=O)C(C)(C)C(=O)[C@H](C)[C@H]1O[C@@H]1O[C@H](C)C[C@H](N(C)C)[C@H]1O (stereo partly drawn) [Compound 170] = > 32 µg/mL

Now, please, on to the next compound.
Any idea what MIC was measured for CO[C@]1(C)C[C@@H](C)CN[C@H](c2ccccc2)COC(=O)[C@H](C)C(=O)[C@H](C)[C@H]1O[C@@H]1OC(C)CC(N(C)C)C1O (stereo partly drawn) [Compound 204] ?
> 32 µg/mL
